This section presents binders with their documented Relative Proliferation Fold Change 3F8 1:50 values.
Target: T1, orthogonal hCD122 receptor (hoRb), hCD122 with H133D and Y134F (human, UniProt P14784 27-550); also: reference of the scale not given here
T1 sequence: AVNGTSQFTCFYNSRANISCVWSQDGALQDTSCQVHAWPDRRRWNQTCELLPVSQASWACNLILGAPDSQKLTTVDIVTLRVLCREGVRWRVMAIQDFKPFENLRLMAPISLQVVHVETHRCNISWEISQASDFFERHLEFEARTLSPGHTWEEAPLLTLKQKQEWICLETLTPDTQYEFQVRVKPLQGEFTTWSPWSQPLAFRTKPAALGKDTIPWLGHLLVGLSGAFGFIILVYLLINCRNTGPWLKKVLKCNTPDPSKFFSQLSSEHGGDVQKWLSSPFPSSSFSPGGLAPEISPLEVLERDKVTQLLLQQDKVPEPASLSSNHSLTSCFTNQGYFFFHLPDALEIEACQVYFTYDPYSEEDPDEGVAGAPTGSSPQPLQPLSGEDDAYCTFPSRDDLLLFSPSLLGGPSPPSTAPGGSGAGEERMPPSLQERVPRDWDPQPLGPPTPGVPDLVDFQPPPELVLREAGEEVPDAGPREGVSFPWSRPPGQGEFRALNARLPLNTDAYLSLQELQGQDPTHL
Experiment: cell-based or functional assay
Report as a plain number; the unit fold is understood.

Known results for binders:
1. R81Y, SQVLKA (ligand) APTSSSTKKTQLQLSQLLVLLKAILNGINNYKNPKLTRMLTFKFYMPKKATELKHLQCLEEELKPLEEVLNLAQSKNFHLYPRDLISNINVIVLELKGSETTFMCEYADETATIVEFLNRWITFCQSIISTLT ... 17.6
2. Q126R, SQVLKA (ligand) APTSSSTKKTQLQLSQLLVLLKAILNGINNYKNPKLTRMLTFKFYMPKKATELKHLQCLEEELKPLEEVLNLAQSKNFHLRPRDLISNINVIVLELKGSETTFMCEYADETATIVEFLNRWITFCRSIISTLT ... 1.37
3. SQVLKT (ligand) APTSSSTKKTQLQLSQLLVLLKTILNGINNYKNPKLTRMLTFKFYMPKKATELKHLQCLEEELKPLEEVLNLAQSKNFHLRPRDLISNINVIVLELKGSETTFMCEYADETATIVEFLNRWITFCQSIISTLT ... 37.8

Continue with the binder presented below.
Measured Relative Proliferation Fold Change 3F8 1:50 of V91K, SQVLKA (ligand) APTSSSTKKTQLQLSQLLVLLKAILNGINNYKNPKLTRMLTFKFYMPKKATELKHLQCLEEELKPLEEVLNLAQSKNFHLRPRDLISNINKIVLELKGSETTFMCEYADETATIVEFLNRWITFCQSIISTLT : 1.25
